- Target Under Test: α7 nAChR (Rattus norvegicus, UniProt Q05941)
- Sequence (Q05941 23-502): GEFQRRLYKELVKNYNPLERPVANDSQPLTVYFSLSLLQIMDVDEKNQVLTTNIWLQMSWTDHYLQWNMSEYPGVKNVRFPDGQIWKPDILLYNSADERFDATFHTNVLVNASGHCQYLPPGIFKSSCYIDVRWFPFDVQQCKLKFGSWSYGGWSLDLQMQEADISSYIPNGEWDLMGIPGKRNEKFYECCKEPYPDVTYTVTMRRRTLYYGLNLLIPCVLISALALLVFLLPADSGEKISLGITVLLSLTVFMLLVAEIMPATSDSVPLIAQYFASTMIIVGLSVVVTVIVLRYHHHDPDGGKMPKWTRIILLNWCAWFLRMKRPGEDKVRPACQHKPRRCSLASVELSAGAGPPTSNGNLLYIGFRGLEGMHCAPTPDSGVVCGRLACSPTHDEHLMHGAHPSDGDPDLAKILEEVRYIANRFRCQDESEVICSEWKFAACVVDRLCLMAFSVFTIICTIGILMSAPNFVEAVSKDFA
- Protocol Text: [3H]-MLA competition binding assay, rat brain membranes
- Condition Parameters: Ki, inhibition of [3H]-MLA binding (3.0 to 4.0 nM), Sprague-Dawley rat whole brain minus cerebellum homogenate, 1 hour at 25° C
Structures can show the parent of a compound that is named as a salt.
# key: entry, value: Ki

{"Molecule": "O=C(N[C@H]1CN2CCC1CC2)c1ccc(-c2ccccn2)s1", "Target Under Test": "α7 nAChR (Rattus norvegicus, UniProt Q05941)", "Ki": "0.003 to 0.005 µM"}
{"Molecule": "O=C(N[C@H]1CN2CCC1CC2)c1ccc(-c2ccc(O)c(F)c2)s1 [Example 43, Hydrochloride]", "Target Under Test": "α7 nAChR (Rattus norvegicus, UniProt Q05941)", "Ki": "0.003 to 0.005 µM"}
{"Molecule": "COc1ccc(-c2cnc(C(=O)N[C@H]3CN4CCC3CC4)o2)cc1 [Example 82, 4-methylbenzenesulfonate]", "Target Under Test": "α7 nAChR (Rattus norvegicus, UniProt Q05941)", "Ki": "0.115 to 0.125 µM"}
{"Molecule": "O=C(N[C@H]1CN2CCC1CC2)c1ccc(Sc2ccccc2)s1", "Target Under Test": "α7 nAChR (Rattus norvegicus, UniProt Q05941)", "Ki": "0.035 to 0.16 µM"}
{"Molecule": "Cc1ccc(C(=O)N[C@H]2CN3CCC2CC3)s1", "Target Under Test": "α7 nAChR (Rattus norvegicus, UniProt Q05941)", "Ki": "0.01 to 0.015 µM"}
